src = patent US5686486A

biological target: HIV-1 protease (Human immunodeficiency virus type 1 group M subtype B, UniProt P04585); assay: biochemical; settings: dose 10.000 uM
Provide the reported HIV-1 Protease % Inhib of each item.
Could you give me the number in %? Just the number is fine.

In plain terms, CC(C)(C)OC(=O)N[C@@H](Cc1c[nH]cn1)C(=O)Nc1cccc(C(c2c(O)c3c(oc2=O)CCCCCC3)C2CC2)c1 (single isomer, unassigned) [Example 241] has a documented HIV-1 Protease % Inhib of 110.04

In plain terms, CC(C)(C)OC(=O)NCC(=O)Nc1cccc(C(c2c(O)c3c(oc2=O)CCCCCC3)C2CC2)c1 (single isomer, unassigned) [Example 239] has a documented HIV-1 Protease % Inhib of 107.4

In plain terms, N#Cc1ccc(S(=O)(=O)Nc2cccc(C(c3c(O)c4c(oc3=O)CCCCCC4)C3CC3)c2)cc1 (stereo not drawn) [Example 262] has a documented HIV-1 Protease % Inhib of 119.5

In plain terms, N#Cc1ccc(S(=O)(=O)Nc2cccc(C(c3c(O)c4c(oc3=O)CCCCCC4)C3CC3)c2)cc1 (stereo not drawn) [Example 402] has a documented HIV-1 Protease % Inhib of 98.03

In plain terms, I.O=c1oc2c(c(O)c1C(c1cccc(NS(=O)(=O)CCCN3CCOCC3)c1)C1CC1)CCCCCC2 (stereo not drawn) [Example 365B (Third Title Compound)] has a documented HIV-1 Protease % Inhib of 90.94

In plain terms, Cn1cnc(S(=O)(=O)Nc2cccc([C@@H](c3c(O)c4c(oc3=O)CCCCCC4)C3CC3)c2)c1 [Example 254] has a documented HIV-1 Protease % Inhib of 112.1

---

target: HIV-1 protease (Human immunodeficiency virus type 1 group M subtype B, UniProt P04585); assay: biochemical; details: read-out: HIV-1 Protease % Inhib, dose 10.000 uM
Provide the reported inhibition at 10 µM of each item.
Could you give me the number in %? Just the number is fine.

In plain terms, O=c1oc2c(c(O)c1C(c1cccc(NS(=O)(=O)c3c(F)c(F)c(F)c(F)c3F)c1)C1CC1)CCCCCC2 (centres unmarked) has a documented inhibition at 10 µM of 102

In plain terms, O=c1oc2c(c(O)c1C(c1cccc(NS(=O)(=O)c3cc(Br)c(Br)s3)c1)C1CC1)CCCCCC2 (centres unmarked) has a documented inhibition at 10 µM of 110

In plain terms, CCC(Cc1c(O)c2ccccc2oc1=O)c1ccccc1 (centres unmarked) [Example 84, Coumarin, 4-hydroxy-3-(2-phenylbutyl)-] has a documented inhibition at 10 µM of 30.2

In plain terms, CCC(=O)c1ccc(C(CC)c2c(O)c3ccccc3oc2=O)cc1 (centres unmarked) has a documented inhibition at 10 µM of 11.7

In plain terms, C=CCOc1ccc2c(O)c(C(CC)c3ccccc3)c(=O)oc2c1 (centres unmarked) has a documented inhibition at 10 µM of 65.7

In plain terms, CCC(c1cccc(NC(=O)CC[C@H](N)C(=O)O)c1)c1c(O)c2ccccc2oc1=O (some centres unmarked) has a documented inhibition at 10 µM of 81.5

In plain terms, CCC(c1ccccc1)c1c(O)c2ccc(OCCN3CCOCC3)cc2oc1=O (centres unmarked) has a documented inhibition at 10 µM of 77.4

In plain terms, Cc1cccc(S(=O)(=O)Nc2cccc(C(c3c(O)c4c(oc3=O)CCCCCC4)C3CC3)c2)c1 (centres unmarked) has a documented inhibition at 10 µM of 103

---

molecular target: HIV-1 protease (Human immunodeficiency virus type 1 group M subtype B); experiment: biochemical; settings: read-out: HIV-1 Protease % Inhib, dose 100.000 uM
Provide the reported inhibition at 100 µM of each item.
Could you give me the number in %? Just the number is fine.

In plain terms, CCC(c1ccccc1)c1c(O)c2ccc(OCCOCCOC)cc2oc1=O (stereo not drawn) has a documented inhibition at 100 µM of 92.4

In plain terms, CCC(c1cccc(NS(=O)(=O)CCNC(=O)OC(C)(C)C)c1)c1c(O)c2ccccc2oc1=O (stereo not drawn) has a documented inhibition at 100 µM of 109

In plain terms, CCC(c1cccc(NC(=O)C(C)N)c1)c1c(O)c2ccccc2oc1=O (stereo not drawn) has a documented inhibition at 100 µM of 119

In plain terms, CCC(c1cccc(N)c1)c1c(O)c2ccccc2oc1=O (stereo not drawn) has a documented inhibition at 100 µM of 51.3

In plain terms, CC(C)(C)OC(=O)CC(c1ccccc1)c1c(O)c2ccccc2oc1=O (stereo not drawn) has a documented inhibition at 100 µM of 52.6

In plain terms, CCC(c1ccc(F)cc1)c1c(O)c2ccccc2oc1=O (stereo not drawn) has a documented inhibition at 100 µM of 81.6

In plain terms, CCC(c1cccc(NC(=O)CCCc2ccccc2)c1)c1c(O)c2ccccc2oc1=O (stereo not drawn) has a documented inhibition at 100 µM of 71.8

In plain terms, O=c1oc2c(c(O)c1C(Cc1ccccc1)Cc1ccccc1)CCCCCC2 has a documented inhibition at 100 µM of 103

In plain terms, O=c1oc2ccccc2c(O)c1CCCc1ccccc1 [Example 2, 4-Hydroxy-3-(3-phenylpropyl)coumarin] has a documented inhibition at 100 µM of 63.6

---

target: UniProtKB P04585; assay: biochemical; conditions: dose 10.000 uM; read-out: HIV-1 Protease % Inhib
Provide the reported inhibition at 10 µM of each item.

In plain terms, O=c1oc2c(c(O)c1C(c1ccc(NS(=O)(=O)c3ccc(F)cc3)cc1)C1CC1)CCCCCC2 (stereo not shown) has a documented inhibition at 10 µM of 40.4%

In plain terms, CC(=O)Nc1nc(C)c(S(=O)(=O)Nc2cccc(C(c3c(O)c4c(oc3=O)CCCCCC4)C3CC3)c2)s1 (stereo not shown) has a documented inhibition at 10 µM of 91.8%

In plain terms, COCCOCCOCCC1CCCCc2c1oc(=O)c(C(c1ccccc1)C1CC1)c2O (stereo not shown) has a documented inhibition at 10 µM of 66.6%

In plain terms, O=c1oc2c(c(O)c1C(c1cccc(N(Cc3ccccc3)S(=O)(=O)c3ccccc3)c1)C1CC1)CCCCCC2 (stereo not shown) has a documented inhibition at 10 µM of 18.8%

In plain terms, O=c1oc2ccccc2c(O)c1Cc1ccc2ccccc2c1 [Example 3, 4-Hydroxy-3-(2-naphthylmethyl)coumarin] has a documented inhibition at 10 µM of < 10%

In plain terms, N#Cc1ccc(S(=O)(=O)NCc2ccc(C(c3c(O)c4c(oc3=O)CCCCCC4)C3CC3)s2)cc1 (stereo not shown) has a documented inhibition at 10 µM of 77.6%

In plain terms, O=c1oc2c(c(O)c1C(c1cccc(NC(=S)Nc3ccccc3)c1)C1CC1)CCCCCC2 (stereo not shown) has a documented inhibition at 10 µM of 92.2%

In plain terms, COCCOCCC1CCCCCc2c1oc(=O)c(C(c1ccccc1)C1CC1)c2O (stereo not shown) has a documented inhibition at 10 µM of 97.8%

In plain terms, C=CS(=O)(=O)Nc1cccc(C(c2c(O)c3c(oc2=O)CCCCC3)C2CC2)c1 (stereo not shown) has a documented inhibition at 10 µM of 84.8%

In plain terms, O=c1oc2c(c(O)c1C(c1ccccc1)C1CC1)CCCCC2CC1CCCCO1 (stereo not shown) has a documented inhibition at 10 µM of 96%

In plain terms, CC(C)C(c1cccc(NC(=O)OCc2ccccc2)c1)c1c(O)c2c(oc1=O)CCCCCC2 (stereo not shown) has a documented inhibition at 10 µM of 19.4%

In plain terms, O=C(Nc1ccc(C(c2c(O)c3c(oc2=O)CCCCCC3)C2CC2)cc1)OCc1ccccc1 (stereo not shown) has a documented inhibition at 10 µM of 102%

In plain terms, CN(C)c1cccc2c(S(=O)(=O)Nc3cccc(C(c4c(O)c5c(oc4=O)CCCCCC5)C4CC4)c3)cccc12 (stereo not shown) has a documented inhibition at 10 µM of 85.1%

In plain terms, N#Cc1ccc(S(=O)(=O)NCc2ccc(C(c3c(O)c4c(oc3=O)CCCCCC4)C3CC3)o2)cc1 (stereo not shown) has a documented inhibition at 10 µM of 59.1%

In plain terms, N#Cc1ccc(S(=O)(=O)Nc2ccc(C(c3c(O)c4c(oc3=O)CCCCCC4)C3CC3)cc2)cc1 (stereo not shown) has a documented inhibition at 10 µM of 82.2%

In plain terms, O=c1oc2c(c(O)c1C(c1ccc(NS(=O)(=O)c3cccc([N+](=O)[O-])c3)cc1)C1CC1)CCCCCC2 (stereo not shown) has a documented inhibition at 10 µM of 103%

In plain terms, O=c1oc2c(c(O)c1C(c1cccc(NS(=O)(=O)c3c(Cl)cc(Cl)cc3Cl)c1)C1CC1)CCCCCC2 (stereo not shown) has a documented inhibition at 10 µM of 74.5%

In plain terms, COCOCc1ccc(C(c2c(O)c3c(oc2=O)CCCCCC3)C2CC2)o1 (stereo not shown) has a documented inhibition at 10 µM of 64.5%

In plain terms, O=C(C=Cc1ccccc1)Nc1cccc(C(c2c(O)c3c(oc2=O)CCCCCC3)C2CC2)c1 (stereo not shown) has a documented inhibition at 10 µM of 76.8%

In plain terms, O=C(Nc1cccc(C(c2c(O)c3c(oc2=O)CCCCCC3)C2CC2)c1)c1cccc2ccccc12 (stereo not shown) has a documented inhibition at 10 µM of 59.5%

In plain terms, CCCC(c1cccc(NC(=O)OCc2ccccc2)c1)c1c(O)c2c(oc1=O)CCCCCC2 (stereo not shown) has a documented inhibition at 10 µM of 79%

In plain terms, O=c1oc2c(c(O)c1C(c1ccccc1)C1CC1)CCCCCC2CO (stereo not shown) has a documented inhibition at 10 µM of 76.7%

In plain terms, COc1cccc(OC)c1S(=O)(=O)Nc1cccc(C(c2c(O)c3c(oc2=O)CCCCCC3)C2CC2)c1 (stereo not shown) has a documented inhibition at 10 µM of 87.6%

In plain terms, O=c1oc2c(c(O)c1C(c1ccc(NS(=O)(=O)c3ccc(Cl)cc3)cc1)C1CC1)CCCCCC2 (stereo not shown) has a documented inhibition at 10 µM of 73.6%

In plain terms, O=c1oc2c(c(O)c1C(c1ccccc1)C1CC1)CCCCC2CC1CCOC1 (stereo not shown) has a documented inhibition at 10 µM of 101%

In plain terms, O=c1oc2c(c(O)c1C(c1cccc(NCCc3ccccc3)c1)C1CC1)CCCCCC2 (stereo not shown) has a documented inhibition at 10 µM of 44.7%

In plain terms, O=C(Nc1cccc(C(c2c(O)c3c(oc2=O)CCCCCC3)C2CC2)c1)c1ccc(Cl)cc1 (stereo not shown) has a documented inhibition at 10 µM of 95.8%

In plain terms, O=c1oc2c(c(O)c1C(c1cccc(N3CCCS3(=O)=O)c1)C1CC1)CCCCCC2 (stereo not shown) [Example 365B (First Title Compound)] has a documented inhibition at 10 µM of 83.8%
